Every entry's value here was drawn from patent US11414404B2.

- SYSTEM NAME: BCRP (Homo sapiens (Human))
- Sequence (Q9UNQ0 whole entry, species assumed): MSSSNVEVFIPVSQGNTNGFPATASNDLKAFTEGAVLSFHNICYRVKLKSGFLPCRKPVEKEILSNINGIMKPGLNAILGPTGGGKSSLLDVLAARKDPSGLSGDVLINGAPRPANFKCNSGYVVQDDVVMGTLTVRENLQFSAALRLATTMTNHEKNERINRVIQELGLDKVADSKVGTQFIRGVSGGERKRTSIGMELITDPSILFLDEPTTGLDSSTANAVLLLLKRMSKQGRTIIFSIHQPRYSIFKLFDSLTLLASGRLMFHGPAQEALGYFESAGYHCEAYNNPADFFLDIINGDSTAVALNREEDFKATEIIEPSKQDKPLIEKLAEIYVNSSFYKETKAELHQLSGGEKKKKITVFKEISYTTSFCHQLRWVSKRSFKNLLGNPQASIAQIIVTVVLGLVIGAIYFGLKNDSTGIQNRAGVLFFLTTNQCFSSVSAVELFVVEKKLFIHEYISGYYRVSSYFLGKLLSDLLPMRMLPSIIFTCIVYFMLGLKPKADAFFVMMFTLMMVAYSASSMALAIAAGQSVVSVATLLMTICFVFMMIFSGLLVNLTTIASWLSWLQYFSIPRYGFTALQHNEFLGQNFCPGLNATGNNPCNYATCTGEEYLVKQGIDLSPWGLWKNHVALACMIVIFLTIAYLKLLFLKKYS
- ASSAY PROTOCOL: BCRP MDCKII permeability assay: efflux ratio
- TEST SETTINGS: dog
Where a name gives a salt, the structure may show the parent alone.
PROPERTY: efflux ratio at 2 h, 1 µM

// query Fill blank: measured efflux ratio at 2 h, 1 µM of the compound CCCS(=O)(=O)Nc1cccc(Nc2ccc3ncn(C)c(=O)c3c2C)c1Cl [Example 3] is ____.
// result 0.87

// query Fill blank: measured efflux ratio at 2 h, 1 µM of the compound CCCS(=O)(=O)Nc1cccc(Oc2ccc3ncn(C)c(=O)c3c2C)c1Cl [Example 78] is ____.
// result 0.96

// query Fill blank: measured efflux ratio at 2 h, 1 µM of the compound CCCS(=O)(=O)Nc1ccc(F)c(Nc2ccc3ncn(C)c(=O)c3c2C)c1C [Example 41] is ____.
// result 3.28

// query Fill blank: measured efflux ratio at 2 h, 1 µM of the compound Cc1c(Nc2c(F)ccc(NS(=O)(=O)c3cc(F)ccc3F)c2Cl)ccc2ncn(C)c(=O)c12 [Example 25] is ____.
// result 1.8

// query Fill blank: measured efflux ratio at 2 h, 1 µM of the compound CCCS(=O)(=O)Nc1ccc(F)c(Nc2ccc3ncn([C@H]4CCOC4)c(=O)c3c2C)c1Cl [Example 35, trifluoroacetate] is ____.
// result 1.78

// query Fill blank: measured efflux ratio at 2 h, 1 µM of the compound CCCS(=O)(=O)Nc1ccc(F)c(Nc2ccc3ncn(C4CC4)c(=O)c3c2C)c1Cl [Example 31, trifluoroacetate] is ____.
// result 1.64

// query Fill blank: measured efflux ratio at 2 h, 1 µM of the compound Cc1c(Nc2c(F)ccc(NS(=O)(=O)CCCF)c2F)ccc2ncn(C)c(=O)c12 [Example 2] is ____.
// result 18.6

// query Fill blank: measured efflux ratio at 2 h, 1 µM of the compound CCCS(=O)(=O)Nc1ccc(F)c(Nc2ccc3ncn([C@@H]4CCOC4)c(=O)c3c2C)c1Cl [Example 34, trifluoroacetate] is ____.
// result 2.19

###

- ASSAY PROTOCOL: MDR1 LLC-PK1 and BCRP MDCKII permeability assay: permeability coefficient (Papp)
Structures can show the parent of a compound that is named as a salt.
Mark true only when Papp at 2 h, 1 µM stays strictly below 30 ×10⁻⁶ cm/s. Values equal to the cut-off are false.

// query Papp at 2 h, 1 µM under 30 ×10⁻⁶ cm/s? Item: CCCS(=O)(=O)Nc1ncc(F)c(Nc2ccc3ncn(C)c(=O)c3c2C)c1Cl [Example 18]
// result true

// query Papp at 2 h, 1 µM under 30 ×10⁻⁶ cm/s? Item: Cc1c(Oc2c(F)ccc(NS(=O)(=O)CCCF)c2Cl)ccc2ncn(C)c(=O)c12 [Example 67]
// result true

// query Papp at 2 h, 1 µM under 30 ×10⁻⁶ cm/s? Item: [2H]C([2H])([2H])n1cnc2ccc(Nc3c(F)ccc(NS(=O)(=O)CCC)c3Cl)c(C)c2c1=O [Example 24]
// result true

// query Papp at 2 h, 1 µM under 30 ×10⁻⁶ cm/s? Item: CCCS(=O)(=O)Nc1ccc(F)c(Nc2ccc3ncn(-c4ccccc4)c(=O)c3c2C)c1Cl [Example 32, trifluoroacetate]
// result true

// query Papp at 2 h, 1 µM under 30 ×10⁻⁶ cm/s? Item: Cc1c(Nc2c(F)ccc(NS(=O)(=O)CCCF)c2Cl)ccc2ncn(C)c(=O)c12 [Example 10]
// result false

// query Papp at 2 h, 1 µM under 30 ×10⁻⁶ cm/s? Item: CCCS(=O)(=O)Nc1ncc(F)c(Oc2ccc3ncn(C)c(=O)c3c2C)c1F [Example 62]
// result true

// query Papp at 2 h, 1 µM under 30 ×10⁻⁶ cm/s? Item: CCCS(=O)(=O)Nc1ccc(F)c(Nc2ccc3ncn(-c4cccnc4)c(=O)c3c2C)c1Cl [Example 58]
// result true

// query Papp at 2 h, 1 µM under 30 ×10⁻⁶ cm/s? Item: CCCS(=O)(=O)Nc1cc(F)c(F)c(Oc2ccc3ncn(C)c(=O)c3c2C)c1Cl [Example 73]
// result false

// query Papp at 2 h, 1 µM under 30 ×10⁻⁶ cm/s? Item: CCCS(=O)(=O)Nc1ccc(F)c(Nc2ccc3ncn(CC(F)(F)F)c(=O)c3c2C)c1Cl [Example 59]
// result true

// query Papp at 2 h, 1 µM under 30 ×10⁻⁶ cm/s? Item: CCCS(=O)(=O)Nc1cc(F)c(F)c(Nc2ccc3ncn(C)c(=O)c3c2C)c1F [Example 5]
// result true

// query Papp at 2 h, 1 µM under 30 ×10⁻⁶ cm/s? Item: COCCS(=O)(=O)Nc1ccc(F)c(Nc2ccc3ncn(C)c(=O)c3c2C)c1Cl [Example 27]
// result false

// query Papp at 2 h, 1 µM under 30 ×10⁻⁶ cm/s? Item: CCCS(=O)(=O)Nc1ccc(F)c(Nc2ccc3ncn(Cc4ccccc4)c(=O)c3c2C)c1Cl [Example 29]
// result true

// query Papp at 2 h, 1 µM under 30 ×10⁻⁶ cm/s? Item: CCCS(=O)(=O)Nc1cccc(Oc2ccc3ncn(C)c(=O)c3c2C)c1F [Example 68]
// result true

// query Papp at 2 h, 1 µM under 30 ×10⁻⁶ cm/s? Item: CCCS(=O)(=O)Nc1cc(F)cc(Nc2ccc3ncn(C)c(=O)c3c2C)c1F [Example 11]
// result true

// query Papp at 2 h, 1 µM under 30 ×10⁻⁶ cm/s? Item: Cc1c(Nc2c(F)c(F)cc(NS(=O)(=O)CCCF)c2F)ccc2ncn(C)c(=O)c12 [Example 6]
// result true

// query Papp at 2 h, 1 µM under 30 ×10⁻⁶ cm/s? Item: CCCS(=O)(=O)Nc1cccc(Nc2ccc3ncn(C)c(=O)c3c2C)c1Cl [Example 3]
// result true

// query Papp at 2 h, 1 µM under 30 ×10⁻⁶ cm/s? Item: CCCS(=O)(=O)Nc1cccc(Oc2ccc3ncn(C)c(=O)c3c2C)c1Cl [Example 78]
// result true

// query Papp at 2 h, 1 µM under 30 ×10⁻⁶ cm/s? Item: CCCS(=O)(=O)Nc1ccc(F)c(Nc2ccc3ncn(C4CCCC4)c(=O)c3c2C)c1Cl [Example 39, trifluoroacetate]
// result true

// query Papp at 2 h, 1 µM under 30 ×10⁻⁶ cm/s? Item: CCCS(=O)(=O)Nc1cc(F)cc(Nc2ccc3ncn(C)c(=O)c3c2C)c1Cl [Example 12]
// result true

// query Papp at 2 h, 1 µM under 30 ×10⁻⁶ cm/s? Item: Cc1c(Oc2cccc(NS(=O)(=O)CCCF)c2Cl)ccc2ncn(C)c(=O)c12 [Example 79]
// result true

// query Papp at 2 h, 1 µM under 30 ×10⁻⁶ cm/s? Item: Cc1c(Oc2cccc(NS(=O)(=O)CCCF)c2F)ccc2ncn(C)c(=O)c12 [Example 80]
// result false

// query Papp at 2 h, 1 µM under 30 ×10⁻⁶ cm/s? Item: Cc1c(Nc2c(F)ccc(NS(=O)(=O)N3CCCC3)c2Cl)ccc2ncn(C)c(=O)c12 [Example 21]
// result true

// query Papp at 2 h, 1 µM under 30 ×10⁻⁶ cm/s? Item: CCCS(=O)(=O)Nc1ccc(F)c(Nc2ccc3ncn(CCOC)c(=O)c3c2C)c1Cl [Example 30]
// result true

// query Papp at 2 h, 1 µM under 30 ×10⁻⁶ cm/s? Item: CCC(C)S(=O)(=O)Nc1ccc(F)c(Nc2ccc3ncn(C)c(=O)c3c2C)c1Cl (centres unmarked) [Example 61]
// result true

// query Papp at 2 h, 1 µM under 30 ×10⁻⁶ cm/s? Item: CCCS(=O)(=O)Nc1ccc(F)c(Nc2ccc3ncn([C@@H]4CCOC4)c(=O)c3c2C)c1Cl [Example 34, trifluoroacetate]
// result true

// query Papp at 2 h, 1 µM under 30 ×10⁻⁶ cm/s? Item: CCCS(=O)(=O)Nc1cc(Cl)cc(Nc2ccc3ncn(C)c(=O)c3c2C)c1F [Example 13]
// result true

// query Papp at 2 h, 1 µM under 30 ×10⁻⁶ cm/s? Item: Cc1c(Nc2cc(F)cc(NS(=O)(=O)CCCF)c2Cl)ccc2ncn(C)c(=O)c12 [Example 44]
// result true

// query Papp at 2 h, 1 µM under 30 ×10⁻⁶ cm/s? Item: Cc1c(Nc2cccc(NS(=O)(=O)CCCF)c2Cl)ccc2ncn(C)c(=O)c12 [Example 4]
// result false

// query Papp at 2 h, 1 µM under 30 ×10⁻⁶ cm/s? Item: CCCS(=O)(=O)Nc1ncc(F)c(Nc2ccc3ncn(C)c(=O)c3c2C)c1F [Example 16]
// result true

// query Papp at 2 h, 1 µM under 30 ×10⁻⁶ cm/s? Item: CCCS(=O)(=O)Nc1ccc(F)c(Nc2ccc3ncn(C)c(=O)c3c2C)c1C#N [Example 28]
// result true

###

- SYSTEM NAME: BCRP (Homo sapiens (Human))
- ASSAY PROTOCOL: BCRP MDCKII permeability assay: efflux ratio
- TEST SETTINGS: dog
PROPERTY: efflux ratio at 2 h, 1 µM
Just the number.

// query Form field: efflux ratio at 2 h, 1 µM recorded for CCCS(=O)(=O)Nc1cccc(Oc2ccc3ncn(C)c(=O)c3c2C)c1F with BCRP (Homo sapiens (Human)) (enter value)
// result 1.3

// query Form field: efflux ratio at 2 h, 1 µM recorded for Cc1c(Oc2cccc(NS(=O)(=O)CCCF)c2F)ccc2ncn(C)c(=O)c12 with BCRP (Homo sapiens (Human)) (enter value)
// result 2.03

// query Form field: efflux ratio at 2 h, 1 µM recorded for CCCS(=O)(=O)Nc1ccc(F)c(Oc2ccc3ncn(C)c(=O)c3c2C)c1F with BCRP (Homo sapiens (Human)) (enter value)
// result 0.86

// query Form field: efflux ratio at 2 h, 1 µM recorded for Cc1c(Nc2cccc(NS(=O)(=O)CCCF)c2Cl)ccc2ncn(C)c(=O)c12 with BCRP (Homo sapiens (Human)) (enter value)
// result 1.85

// query Form field: efflux ratio at 2 h, 1 µM recorded for CCCS(=O)(=O)Nc1ccc(F)c(Nc2ccc3ncn(-c4cccnc4)c(=O)c3c2C)c1Cl with BCRP (Homo sapiens (Human)) (enter value)
// result 1.93

// query Form field: efflux ratio at 2 h, 1 µM recorded for Cc1c(Nc2c(F)cnc(NS(=O)(=O)CCCF)c2Cl)ccc2ncn(C)c(=O)c12 with BCRP (Homo sapiens (Human)) (enter value)
// result 21.1

// query Form field: efflux ratio at 2 h, 1 µM recorded for CCCS(=O)(=O)Nc1ncc(F)c(Nc2ccc3ncn(C)c(=O)c3c2C)c1Cl with BCRP (Homo sapiens (Human)) (enter value)
// result 10.4

// query Form field: efflux ratio at 2 h, 1 µM recorded for CCCS(=O)(=O)Nc1ccc(F)c(Nc2ccc3ncn(CC4CC4)c(=O)c3c2C)c1Cl with BCRP (Homo sapiens (Human)) (enter value)
// result 1.57
